# SYSTEM: TGF-beta receptor type-1 (Homo sapiens, UniProt P36897, T204D)
# ASSAY EXPLANATION: Inhibition of TGFbeta type receptor 1 ALK5 (T204D) expressed in Sf9 cells
pIC50: −log10 of the molar value.
Response key: t means pIC50 >= 7; f means pIC50 < 7.

*Q* Confirm if pIC50 reported for the compound `COc1cc(OC)c2nccc(-c3c(-c4cccc(C)n4)nn4c3CCC4)c2c1` is 7 or above.
*A* f

*Q* Confirm if pIC50 reported for the compound `CN(C)Cc1ccc(Oc2ccc3c(-c4c(-c5ccccn5)nn5c4CCC5)ccnc3c2)cc1` is 7 or above.
*A* f

*Q* Confirm if pIC50 reported for the compound `Cc1cccc(-c2nn3c(c2-c2ccnc4c(F)cccc24)CCC3)n1` is 7 or above.
*A* f

*Q* Confirm if pIC50 reported for the compound `CN(C)C(=O)c1ccc(Oc2ccc3c(-c4c(-c5ccccn5)nn5c4CCC5)ccnc3c2)cc1` is 7 or above.
*A* f

*Q* Confirm if pIC50 reported for the compound `Clc1cc(-c2c(-c3ccccn3)nn3c2CCC3)c2ccccc2n1` is 7 or above.
*A* f

*Q* Confirm if pIC50 reported for the compound `CCSc1cc(-c2c(-c3ccccn3)nn3c2CCC3)c2ccccc2n1` is 7 or above.
*A* f

*Q* Confirm if pIC50 reported for the compound `CN(C)CCCCCOc1ccc2c(-c3c(-c4ccccn4)nn4c3CCC4)ccnc2c1` is 7 or above.
*A* t

*Q* Confirm if pIC50 reported for the compound `CN1CCN(C(=O)COc2ccc3c(-c4c(-c5ccccn5)nn5c4CCC5)ccnc3c2)CC1` is 7 or above.
*A* t

*Q* Confirm if pIC50 reported for the compound `c1ccc(-c2nn3c(c2-c2cc(N4CCCC4)nc4ccccc24)CCC3)nc1` is 7 or above.
*A* f

*Q* Confirm if pIC50 reported for the compound `NC(=O)c1ccc(Oc2ccc3c(-c4c(-c5ccccn5)nn5c4CCC5)ccnc3c2)cc1` is 7 or above.
*A* f

*Q* Confirm if pIC50 reported for the compound `N#Cc1ccc(Oc2ccc3c(-c4c(-c5ccccn5)nn5c4CCC5)ccnc3c2)cc1` is 7 or above.
*A* f

*Q* Confirm if pIC50 reported for the compound `COC(=O)c1ccc2nccc(-c3c(-c4cccc(C)n4)nn4c3CCC4)c2c1` is 7 or above.
*A* f

*Q* Confirm if pIC50 reported for the compound `COc1cc(-c2c(-c3ccccn3)nn3c2CCC3)c2ccccc2n1` is 7 or above.
*A* f
